TESTED_SYSTEM: Ubiquitin-activating enzyme e1, putative (Leishmania donovani (strain BPK282A1))
ASSAY_PROCEDURE: Leishmania donovani Ubiquitin Activating Enzyme (LdE1)
Type: functional
Design: scale not given: direction of the effect not stated beside the values
CONDITION_SUMMARY: 30 µM
Measured potencies and affinities stand elsewhere.
MEASURED_ATTRIBUTE: Percent Effect (%)

> print(dat)
                                    compound  value
 1  Cn1cnc2c1C(COCC1CC1)CN(C(=O)Cc1ccsc1)C2 (configuration not stated)   10.4
 2  CC(C)OCCCNC(=O)CS(=O)(=O)Cc1ccc(Cl)c(Cl)c1    5.2
 3  C=Cc1ccc(C(=O)N2CCCC(Nc3ccc(F)cc3)C2)cc1 (configuration not stated)   8.11
 4      CCOC(=O)N1CCN(c2nc(NC)c3ccccc3n2)CC1      4
 5  CCC1=N[C@@]2(CC[C@@H]3CN(C(=O)NCc4ccccc4)C[C@@H]32)C(=O)N1C  -6.49
 6  O=C(C[C@@H]1COC[C@H]2CN(Cc3ccc(F)cc3)C[C@@H]12)N1CCCCO1   6.67
 7  CN(C)S(=O)(=O)N1CCN(c2ccnc(N3CCCC3)n2)CC1   -2.7
 8               CCc1nc(CN(CC(N)=O)C(C)C)cs1   17.7
 9  Cc1cccnc1C(=O)N1CCCCC1c1[nH]ncc1S(C)(=O)=O (configuration not stated)   6.67
10  Cc1ccc(F)cc1C(=O)N1C[C@@H](CN2CCOCC2)[C@@H](CO)C1   8.11
11       Cc1ccc(-c2nnc(CNCCn3cc(C)cn3)o2)cc1   7.79
12        OCCn1cc(CN2CCN(CCOc3ccccc3)CC2)cn1   8.11
13  Cc1ccc(OC2(C(=O)O)CCN(C(=O)c3nc(C)oc3C)CC2)cn1      0
14  NC(=O)NCC(=O)N1C[C@H]2CC[C@@H]1CN(Cc1ccccc1)C2   5.48
15  c1cncc(CN2CCc3ncnc(C4CCOC4)c3CC2)c1 (configuration not stated)   21.3
16  COCC1c2nnn(CC3CC3)c2CCN1C(=O)c1ccnnc1 (configuration not stated)   21.6
17         Cc1ccc2c(n1)N(C)CCN(C(=O)C1CC1)C2      8
18      CCCN(C(=O)COC)c1nc2c(s1)CCc1c-2cnn1C     52
19  CC(C)c1cc(N2CCC(CCC(=O)NC3CC3)CC2)n2nccc2n1   5.41
20  CC(C)c1cc(NC(=O)CN2CCC(N3CCNC3=O)CC2)on1   15.6
21        CC(C)(C)C(=O)NCCc1ccn(-c2ccccc2)n1   13.9
22  C[C@H]1C[C@H]2CN(C(=O)c3ccncn3)CC[C@H]2O1    2.7
23            CCNC(=O)CCc1c(C)nc2cc(O)nn2c1C   15.6
24           CCc1nc(C)c(C(=O)NCCNc2cnccn2)s1   21.1
25  Cc1n[nH]c(C2CN(CC(=O)NCc3ccco3)CCO2)n1 (configuration not stated)      0
26  CNC(=O)[C@@]12CCO[C@@H]1CCN(Cc1scnc1C)C2   7.79
27         Cc1ccc(CN2CCc3ncnc(C4CC4)c3CC2)s1   5.33
28  Cc1n[nH]c(C2CN(CC(=O)NCCc3ccsc3)CCO2)n1 (configuration not stated)   5.48
29  O=C(C1CC=CC1)N1C[C@@H]2[C@@H](C1)OCC(=O)N2Cc1cccnc1   -2.6
30    Cc1ccccc1CN(C)Cc1nc2c(cnn2C)c(=O)[nH]1   10.3
31     CNC(=O)C1CCN(C(=O)c2cccn2Cc2cccs2)CC1   -2.6
32  CCC(=O)N1CCc2nc3cc(OC)c(OC)cc3c(=O)n2CC1   9.46
33  CSc1ccccc1C(C(=O)O)N1CCN(Cc2ccccn2)CC1 (configuration not stated)   13.5
34          COCCCNc1nccc(-c2c[nH][nH]c2=O)n1      8
35  CCN1CC2(CC1=O)CN(Cc1cnn(C)c1)CCN(C(=O)C(C)C)C2 (configuration not stated)   5.41
36          CCN(CC)C(=O)c1nnn(Cc2ccccc2)c1OC  -1.33
37  CN1CCOC(CNC(=O)CCCOCCc2ccccc2)C1 (configuration not stated)   17.9
38  CCC(=O)N1CCC2(CC1)COc1ccccc1S(=O)(=O)N(C)C2   16.2
39  c1cc(CNCC2OCCc3cn(CC4CCOCC4)nc32)ccn1 (configuration not stated)  -37.8
40           Cc1ncsc1C(=O)NCCOc1ncc(Cl)cc1Cl   5.41
41  CC(C)CN1CCC2(C=C(C(=O)N3CCCC3)c3ccccc32)CC1      0
42  O=S(=O)(c1ccccc1)N1CCCCC1c1cc[nH]n1 (configuration not stated)   9.33
43  Cc1ccc(NC(=O)c2cc(S(=O)(=O)N3CCCCC3)c[nH]2)cc1F    5.2
44     Cc1oc(-c2ccsc2)nc1CC(=O)NCCS(C)(=O)=O    5.2
45        COc1c(CNCc2cccc(CN(C)C)c2)c(C)nn1C   10.8
46  O=C(O)c1ccc(S(=O)(=O)Nc2ccc(Cl)c(F)c2)c(F)c1   -2.7
47  Cc1c(F)cc(C(=O)O)cc1S(=O)(=O)Nc1cccc(C(F)F)c1  -2.56
